- Test Name: Permeability of compounds in Caco-2 assay (bi-directional transport)
- Type: in vitro ADME
- Measurement Context: human, pH 7.4; Caco-2 monolayer, 2.00 μM, B to A, 2 hours, pH 7.40
List of Papp B→A at 2 h, 2 μM values.
Measure Name: Papp B→A at 2 h, 2 μM (×10⁻⁶ cm/s)

- Molecule: "CC(C)C(=O)OC[C@H]1O[C@@H](n2ccc(NO)nc2=O)[C@H](O)[C@@H]1O [molnupiravir, reference compound]"
  Value Observed: 0.527
- Molecule: "CC(C)C(=O)OC[C@H]1O[C@@H](n2ccc(NO)nc2=O)[C@@H]2OC(=O)O[C@@H]21"
  Value Observed: 2.04

Each recorded value in this set is attributed to patent US11865132B2.
